Biological target: OXA-1 (Escherichia coli)
Construct: made in house; host or cells: E. coli
Sequence (P13661 26-276): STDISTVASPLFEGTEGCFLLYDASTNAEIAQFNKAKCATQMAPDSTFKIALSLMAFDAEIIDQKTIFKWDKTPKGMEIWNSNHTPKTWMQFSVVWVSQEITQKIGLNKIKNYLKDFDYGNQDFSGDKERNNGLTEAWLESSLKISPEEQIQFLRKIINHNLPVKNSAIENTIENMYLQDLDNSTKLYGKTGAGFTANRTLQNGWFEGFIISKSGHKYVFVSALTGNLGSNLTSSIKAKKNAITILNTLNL
Assay: β-lactamase inhibitory activity, determination of IC50 (nitrocefin hydrolysis)
Assay type: biochemical
Conditions: class (D); nitrocefin 200 μM, 30 min pre-incubation; read-out: IC50 β-lactamase OXA-1
READOUT TYPE: log10 of IC50 (log10 of the value in nM)
Hello, just confirming the data are log10 of IC50 with units of nM.

Known log10 of IC50 results, listed for orientation:
INSERT INTO assay_data (compound, readout_type, recorded_value) VALUES
  ('Cn1cc(C2=CC3CN(C2)C(=O)N3OS(=O)(=O)[O-])ccc1=O.[Na+] (stereo not drawn) [Example 28, sulfate]', 'log10 of IC50', 3.00),
  ('O=C1N2CC(c3ccccn3)=CC(C2)N1OS(=O)(=O)[O-].[Na+] (stereo not drawn) [Example 42]', 'log10 of IC50', 2.81),
  ('O=C1N2CC=C(c3ncco3)C(C2)N1OS(=O)(=O)[O-].[Na+] (stereo not drawn) [Example 4]', 'log10 of IC50', 2.41),
  ('O=C1N2CC(c3cnoc3)=CC(C2)N1OS(=O)(=O)[O-].[Na+] (stereo not drawn) [Example 26, sulfate]', 'log10 of IC50', 2.57),
  ('COc1ncc(C2=CCN3CC2N(OS(=O)(=O)[O-])C3=O)cn1.[Na+] (stereo not drawn) [Example 24, sulfate]', 'log10 of IC50', 2.58);

Can you give me log10 of IC50 for all of these, one by one?
1. O=C1N2CC(c3ccncc3)=CC(C2)N1OS(=O)(=O)[O-].[Na+] (stereo not drawn) [Example 33]
2. O=C1N2CC=C(c3ccccn3)C(C2)N1OS(=O)(=O)[O-].[Na+] (stereo not drawn) [Example 11]
3. O=C1N2CC(c3nc4cccnc4s3)=CC(C2)N1OS(=O)(=O)[O-].[Na+] (stereo not drawn) [Example 40, sulfate]
4. Cn1cc(C2=CCN3CC2N(OS(=O)(=O)[O-])C3=O)cnc1=O.[Na+] (stereo not drawn) [Example 15, sulfate]
5. Cn1cc(C2=CCN3CC2N(OS(=O)(=O)[O-])C3=O)ncc1=O.[Na+] (stereo not drawn) [Example 14, sulfate]
6. O=C1N2CC(c3ncon3)=CC(C2)N1OS(=O)(=O)[O-].[Na+] (stereo not drawn) [Example 36, sulfate]
7. O=C1N2CC=C(c3ccncc3)C(C2)N1OS(=O)(=O)[O-].[Na+] (stereo not drawn) [Example 7]
8. O=C1N2CC(c3ncco3)=C[C@H](C2)N1OS(=O)(=O)[O-].[Na+] [Example 44, sulfate]

Result:
1. 2.84
2. 3.11
3. 2.08
4. 3.04
5. 2.86
6. 3.38
7. 2.40
8. 1.94

Can you give me log10 of IC50 for all of these, one by one?
1. Cn1cc(C2=CCN3CC2N(OS(=O)(=O)[O-])C3=O)c(=O)n(C)c1=O.[Na+] (stereo not drawn) [Example 23, sulfate]
2. O=C1N2CC=C(c3cnco3)C(C2)N1OS(=O)(=O)[O-].[Na+] (stereo not drawn) [Example 3]

Result:
1: 2.94; 2: 2.32
